Each recorded value in this set is attributed to ChEMBL document CHEMBL1156792.

experimental-system: Dipeptidyl peptidase 4 (Homo sapiens)
run-description: Ratio of Vmax/Km for human recombinant CD26 assessed as hydrolysis
Peptide text beside a SMILES is read from it. * marks the point of attachment. X2 = OC[C@H]1O[C@@H](n2cnc3c(N*)ncnc32)[C@@H](O)[C@@H]1O
measured-quantity: Vmax/Km

q: Any idea what its Vmax/Km is? The compound is `CC(C)[C@H](N)C(=O)N1CCC[C@H]1C(=O)Nc1ccc2ncccc2c1`
a: 1.3

q: Given CC(C)[C@H](N)C(=O)N1CCC[C@H]1C(=O)N[C@H](C(=O)N1CCC[C@H]1C(=O)Nc1ncnc2c1ncn2[C@@H]1O[C@H](CO)[C@@H](O)[C@@H]1O)C(C)C (H-VPVP-X2) , state its recorded Vmax/Km.
a: 0.18

q: Could you share which Vmax/Km value was measured for `COc1cccc2c1C(=O)c1c(O)c3c(c(O)c1C2=O)C[C@@](O)(C(=O)CO)C[C@@H]3O[C@H]1C[C@H](NC(=O)[C@@H]2CCCN2C(=O)[C@@H](N)C(C)C)[C@H](O)[C@H](C)O1` ?
a: 0.5

q: So what does the record say about Vmax/Km for `N[C@@H](CC(=O)O)C(=O)N1CCC[C@H]1C(=O)Nc1ccc2ncccc2c1` ?
a: 0.13
